experiment notes: Primary qHTS for delayed death inhibitors of the malarial parasite plastid, 96 hour incubation; as to activity change, negative = inhibition: % is scaled to controls: 0 for no effect and ±100 for the full control effect
conditions used: P. falciparum luciferase reporter growth; series mostly up to 28.7 µM
The campaign covered roughly 320,000 compounds. About 22,000 (6.9%) were called active. Roughly 27% stayed inconclusive and do not appear here. The full list was thinned out, with actives kept by preference.
parameter measured: activity change, negative = inhibition

• COc1ccc(C)cc1NC(=O)NCc1ccccn1 = 14.6% [at 5.75 µM] (inactive)
• Cc1ccc(S(=O)(=O)N2CCCC2C(=O)NCc2ccco2)cc1 (centres undefined) = -13.6% [at 5.75 µM] (inactive)
• COc1ccc(CCNS(=O)(=O)c2ccc(C(=O)NCc3ccco3)cc2)cc1OC = 11.4% [at 5.75 µM] (inactive)
• COc1ccc2c3c(c(=O)oc2c1)C1O[C@](CCCCN2C(=O)c4ccccc4C2=O)(Cc2c1ccc1ccccc21)O3 = 49.1% [at 5.75 µM] (inactive)

Param item = COC(=O)C(O)(c1ccc(NC(=O)c2ccco2)c(OC)c1)C(F)(F)F (centres undefined) ; retrieve measured activity change, negative = inhibition.
2.22% [at 5.75 µM] (inactive)

====

experiment notes: Primary qHTS for delayed death inhibitors of the malarial parasite plastid, 96 hour incubation; also: potency is read from the fitted curve at half-maximal effect
conditions used: P. falciparum luciferase reporter growth; series mostly up to 28.7 µM
In all, about 320,000 compounds went through this assay and about 22,000 (6.9%) were called active. Inconclusive results (about 27%) are left out. This excerpt belongs to a sample that is enriched for actives.
parameter measured: Potency

- OCC[C@H]1C[C@H](O)[C@@H](O)[C@]2(CCc3ccccc3O2)O1: inactive
- O=C(CCn1c(=S)[nH]c2cc3c(cc2c1=O)OCO3)NCc1ccc(Cl)cc1: 11.7 µM (active)
- O=C1NCCn2nc3ccccc3c21: inactive
- CC(C)NC(=O)CCCn1c(=S)[nH]c2cc3c(cc2c1=O)OCO3: inactive
- Cc1ccc(Sc2cc(C(=O)c3ccccc3C(=O)O)ccc2[N+](=O)[O-])cc1: inactive

# input molecule: CCCCSc1nnc2c(n1)OC=Nc1ccccc1-2 ; wanted: its Potency
inactive

Now consider O=C(Nc1ccc(F)cc1)N1CCCC(c2nc3c(nnn3Cc3ccccc3Cl)c(=O)[nH]2)C1 (configuration not stated) .
inactive

What would you report for COc1ccc(C(=O)Oc2cc(/C=N/NS(=O)(=O)c3ccc(C)cc3)ccc2OC)cc1 ?
inactive

Same read-out for CCOc1ccc(N/C(N)=N/c2nc(C)c(C)c(=O)[nH]2)cc1 ?
inactive

Queued: Cc1ccc(C)c(NC(=O)CN(C)C(=O)c2ccc3ncsc3c2)c1
inactive

Same question for O=S(=O)(NCC1CC1)c1ccc(F)c(Cl)c1 please.
inactive

Would you kindly repeat that for COC(=O)c1cccc(NS(C)(=O)=O)c1 ?
inactive

====

experiment notes: Primary qHTS for delayed death inhibitors of the malarial parasite plastid, 96 hour incubation
conditions used: P. falciparum luciferase reporter growth; series mostly up to 28.7 µM
Screen size: about 320,000 compounds; about 22,000 (6.9%) were called active. Roughly 27% stayed inconclusive and do not appear here. The call rests on the fitted dose curve; in most records, active means well fitted inhibition curve with a large enough effect; inconclusive means small, poorly fitted or top-dose-only effect, or another doubt; inactive means no such curve, though single readings can be large or run the other way. The sample as a whole holds a higher share of actives than the screen did.
Could you please pick one outcome from this set? yes for active, no for inactive

Field: example entries. Status: answers known.
* COc1cccc(C(=O)OCC(=O)c2[nH]c(C)c(C(C)=O)c2C)c1 | no
* CN1C/C(=C/c2cccs2)C(=O)/C(=C\c2cccs2)C1 | no
* O=C(O)/C=C/c1cn(-c2ccccc2)nc1-c1cccs1 | no
* CC(C)(C)NC(=O)NC(=O)CN1CCC(Cc2ccccc2)CC1 | no
* CCn1c(Cc2ccccc2)nnc1SCc1nc2ccccc2c(=O)[nH]1 | no

Now look at this entry.
Recorded call for O=C(O)c1ccc(NC(=O)c2cn(-c3ccccc3)nc2-c2ccc(Cl)cc2)cc1 ?
no

Source listed as PubChem BioAssay AID504834.
